# experimentalTarget: HDAC8 enzyme (recombinant GST-HDAC8) (Homo sapiens)
# Construct: Amplification of human HDAC1 and HDAC8 coding region from this cDNA library
# Sequence (Q9BY41 1-377): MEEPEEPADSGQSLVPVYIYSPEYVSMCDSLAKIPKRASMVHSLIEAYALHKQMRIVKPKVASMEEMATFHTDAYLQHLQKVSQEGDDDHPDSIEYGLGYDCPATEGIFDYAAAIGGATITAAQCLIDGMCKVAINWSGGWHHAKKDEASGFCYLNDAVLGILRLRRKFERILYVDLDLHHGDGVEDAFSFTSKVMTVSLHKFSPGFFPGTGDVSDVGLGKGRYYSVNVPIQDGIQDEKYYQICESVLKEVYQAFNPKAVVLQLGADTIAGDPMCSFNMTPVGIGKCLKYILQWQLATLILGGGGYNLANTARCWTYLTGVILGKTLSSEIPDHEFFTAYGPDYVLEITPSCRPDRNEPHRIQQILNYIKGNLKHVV
# testName: In vitro HDAC assay for determination of IC50 values (BIOMOL fluorescent-based), HDAC8
# assayConditions: 500 nM HDAC8 enzyme, 200 μM Flur de lys p53 peptide substrate, 2 h room temperature
pIC50: −log10 of the molar value.
Please use rule met whenever pIC50 is not below 7, and rule not met whenever it is.

# smilesRecord, groupLabel
records = [
    ("O=C(CCCCCNC(=O)NC(=O)c1ccccc1)NO", "rule not met"),
    ("Cc1ccc(S(=O)(=O)NC(=O)NCc2ccc(C(=O)NO)cc2)cc1", "rule met"),
    ("O=C(/C=C/c1ccc(CN(CCc2c[nH]c3ccccc23)C(=O)NC(=O)c2ccccc2)cc1)NO", "rule not met"),
    ("Cc1ccc(S(=O)(=O)NC(=O)NCCCCCC(=O)NO)cc1", "rule not met"),
    ("O=C(NCc1ccc(C(=O)NO)cc1)NC(=O)c1ccccc1", "rule met"),
    ("O=C(/C=C/c1ccc(CN(CCN2CCCCC2)C(=O)NC(=O)c2ccccc2)cc1)NO", "rule not met"),
    ("Cc1ccc(S(=O)(=O)NC(=O)NCCCCCCCC(=O)NO)cc1", "rule met"),
    ("O=C(CCCCCCNC(=O)NC(=O)c1ccccc1)NO", "rule not met"),
]
